Target: T1, PriB (Neisseria gonorrhoeae, UniProt Q5F924 1-100)
T1 sequence: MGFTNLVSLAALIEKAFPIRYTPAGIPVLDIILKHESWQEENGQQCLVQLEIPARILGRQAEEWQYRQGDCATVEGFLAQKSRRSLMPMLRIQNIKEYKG
Experiment: fluorescence polarization; 20 mM Tris-HCl pH 8, 10% glycerol, 50 mM NaCl, 1 mM 2-mercaptoethanol, 0.1 mg/ml BSA, 1 nM fluorescein-labeled DNA, 25 C
Settings: protein: recombinant; chain copies: 2; label: 3' fluorescein; single strand
Assay Readout: pKd
Worth noting: pKd values are minus log10 of concentrations stated in mol/L.

// recorded pKd for AAGCACAATTACCCACGC (ssDNA) [ssDNA (oML228)] : 6.18
